tested on: passive cutaneous anaphylactic (PCA) reaction; assay: Passive cutaneous anaphylactic (PCA) reaction, reagin-allergen combination, in rats; format: in vivo; details: Rattus norvegicus, oral dose of 100 mg/kg, thirty minutes before intravenous allergen
Would you please tag the item Condition met when its inhibition in vivo at 100 mg/kg is 50% or above, and Condition not met when it is below?

- O=C(Nc1nnn[nH]1)c1cc(Cl)ccc1O: Condition met
- CS(=O)(=O)c1ccc(O)c(C(=O)Nc2nnn[nH]2)c1: Condition met
- O=Cc1ccc(O)c(C(=O)Nc2nnn[nH]2)c1: Condition not met
- CC(=O)c1ccc(O)c(C(=O)Nc2nnn[nH]2)c1: Condition not met
- O=C(Nc1nnn[nH]1)c1ccc(F)cc1O: Condition met
- CS(=O)(=O)c1cccc(C(=O)Nc2nnn[nH]2)c1O: Condition met

Continue with the next compound.
Query block: Form field: inhibition in vivo at 100 mg/kg at least 50%? Entry: `O=C(Nc1nnn[nH]1)c1cc(Br)ccc1O`
Result block: Condition not met

Source of measurements: patent US4146631A
